The values you see were collected from ChEMBL document CHEMBL1131172.

# Tested on: SK-MEL-5
# assay text: inhibition of the growth of melanoma cancer (SK-MEL-5) cell line
# Type: functional
# stated conditions: Homo sapiens
Measured GI50 values are reported for all entries that follow.

Using the record for COc1ccc(N(C)c2ccc3nc(N)nc(N)c3n2)cc1OC , state its measured GI50.
< 10 nM

Output GI50 of CN(c1ccccc1)c1ccc2nc(N)nc(N)c2n1
< 10 nM

Identify GI50 associated with the molecule CN(c1ccc2ccccc2c1)c1ccc2nc(N)nc(N)c2n1
< 10 nM

Identify measured GI50 associated with COc1cc(N(C)c2ccc3nc(N)nc(N)c3n2)cc(OC)c1OC
< 10 nM

Look up and report measured GI50 for this entry: COc1ccc(OC)c(N(C)c2ccc3nc(N)nc(N)c3n2)c1
< 10 nM

Give GI50 for the following molecule: Nc1nc(N)c2nc(Nc3ccccc3)ccc2n1
830 nM

====

Target or system Bifunctional dihydrofolate reductase-thymidylate synthase (Toxoplasma gondii): recorded IC50 listed per item.
Write the answer as a number in nM, unit excluded.

[[record]]
chemical_structure = "COc1ccc(OC)c(Nc2ccc3nc(N)nc(N)c3n2)c1"
measured = 730

[[record]]
chemical_structure = "COc1ccc(N(C)c2ccc3nc(N)nc(N)c3n2)cc1OC"
measured = 0.88


Please supply the value of reported IC50 for the item CN(c1ccccc1)c1ccc2nc(N)nc(N)c2n1
2.2

Return IC50 for the following compound: COc1cc(N(C)c2ccc3nc(N)nc(N)c3n2)cc(OC)c1OC
7.6

Return the recorded IC50 value; entry: CN(c1ccc2nc(N)nc(N)c2n1)c1cccc2ccccc12
2100

Return IC50 for the following compound: COc1ccc(N(C)c2ccc3nc(N)nc(N)c3n2)cc1
8.6

Determine its reported IC50: COc1ccc(Nc2ccc3nc(N)nc(N)c3n2)cc1OC
680

Indicate its recorded IC50; the compound in question is COc1ccc(OC)c(N(C)c2ccc3nc(N)nc(N)c3n2)c1
41

Read off the recorded IC50 for COc1ccccc1S(=O)(=O)c1ccc2nc(N)nc(N)c2n1
210

====

# Test system: 786-0
# assay text: inhibition of the growth of renal cancer(786-0) cell line
# Format: functional
# stated conditions: Homo sapiens
parameter measured: GI50

Below, 2 molecules whose answers are already recorded.
[[record]]
chemical_structure = "COc1ccc(OC)c(N(C)c2ccc3nc(N)nc(N)c3n2)c1"
measured = "< 10 nM"

[[record]]
chemical_structure = "CN(c1ccc2ccccc2c1)c1ccc2nc(N)nc(N)c2n1"
measured = "< 10 nM"


Now consider the entry below.
Output measured GI50 for this item: COc1ccc(N(C)c2ccc3nc(N)nc(N)c3n2)cc1OC
< 10 nM

====

# Test system: DU-145
# assay text: inhibition of the growth of prostate cancer(DU-145) cell line
# Assay type: functional
# stated conditions: Homo sapiens
List of GI50 values.

Example entries begin here.
[[record]]
chemical_structure = "COc1ccc(N(C)c2ccc3nc(N)nc(N)c3n2)cc1OC"
parameter_measured = "GI50"
measured = "< 10 nM"

[[record]]
chemical_structure = "CN(c1ccc2ccccc2c1)c1ccc2nc(N)nc(N)c2n1"
parameter_measured = "GI50"
measured = "< 10 nM"


Now, please, on to the next compound.
Please look at this compound and report its GI50: COc1ccc(OC)c(N(C)c2ccc3nc(N)nc(N)c3n2)c1
< 10 nM
